Assay: recombinant UMI read abundance after kanamycin selection (control-corrected) (log10(CPM+1)); higher = more efficient recombination; extreme values may be limits of the assay; sequences stand for … in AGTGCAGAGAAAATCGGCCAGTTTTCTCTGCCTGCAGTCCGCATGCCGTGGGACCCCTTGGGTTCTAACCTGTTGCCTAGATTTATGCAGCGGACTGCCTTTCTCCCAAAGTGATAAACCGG…AGGTTGGTTTCACT; site = the 11-nt donor;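 note: IS621 bridge recombinase in Escherichia coli cells against a fixed T5 target plasmid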
RECORDED_METRIC: recombinant UMI read abundance (log10)
Respond numerically, and do not add a unit to the figure.

// recombinant UMI read abundance (log10) value for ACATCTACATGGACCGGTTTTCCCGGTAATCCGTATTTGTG (site ACATCTACTTA) : 0

// recombinant UMI read abundance (log10) value for ATAAAGGCATGGACCGGTTTTCCCGGTAATCCGTATTTGCT (site AAAAAGGCTAG) : 0.238

// recombinant UMI read abundance (log10) value for TACGGTACATGGACCGGTTTTCCCGGTAATCCGTATTTGGT (site TACGGTACTAC) : 0.321

// recombinant UMI read abundance (log10) value for AAGCATGCATGGACCGGTTTTCCCGGTAATCCGTATTTGGG (site AAGCACGCTCC) : 0.00447

// recombinant UMI read abundance (log10) value for TGCTTGGCATGGACCGGTTTTCCCGGTAATCCGTATTTGAA (site TGCTTGGCTTT) : 0.485

// recombinant UMI read abundance (log10) value for TGCGTGTCATGGACCGGTTTTCCCGGTAATCCGTATTTGCC (site TGCGTGTCTGG) : 2.33

// recombinant UMI read abundance (log10) value for CGAAAGACATGGACCGGTTTTCCCGGTAATCCGTATTTGGG (site CGAAAGACTCC) : 0.621

// recombinant UMI read abundance (log10) value for AAATCTACATGGACCGGTTTTCCCGGTAATCCGTATTTGTG (site ACATCTACTCA) : 0.0169

// recombinant UMI read abundance (log10) value for AAAGTATCATGGACCGGTTTTCCCGGTAATCCGTATTTGCA (site AGAGTATCTTG) : 2.83

* * *

Assay: recombinant UMI read abundance after kanamycin selection (control-corrected) (log10(CPM+1)); higher = more efficient recombination; extreme values may be limits of the assay; sequences stand for … in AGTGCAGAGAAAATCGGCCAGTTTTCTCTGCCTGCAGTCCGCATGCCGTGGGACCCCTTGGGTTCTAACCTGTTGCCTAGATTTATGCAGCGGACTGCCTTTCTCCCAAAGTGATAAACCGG…AGGTTGGTTTCACT; site = the 11-nt donor
RECORDED_METRIC: recombinant UMI read abundance (log10)
Respond numerically, and do not add a unit to the figure.

// recombinant UMI read abundance (log10) value for AGACTTTCATGGACCGGTTTTCCCGGTAATCCGTATTTGAC (site AGCCTTTCTGT) : 0

// recombinant UMI read abundance (log10) value for TTGCATGCATGGACCGGTTTTCCCGGTAATCCGTATTTGGT (site GTGCATGCTAC) : 0.0185

// recombinant UMI read abundance (log10) value for TTCCCGCCATGGACCGGTTTTCCCGGTAATCCGTATTTGCT (site TTCCCGCCTAG) : 0.552

// recombinant UMI read abundance (log10) value for CTCCCGACATGGACCGGTTTTCCCGGTAATCCGTATTTGGA (site CTCCCGACTTC) : 0.231

// recombinant UMI read abundance (log10) value for TCAGAATCATGGACCGGTTTTCCCGGTAATCCGTATTTGCG (site TCAGAATCTCG) : 2.57
